Biological target: T1, His-tagged Erh1 (residues 1-104) (S. pombe, UniProt G2TRN4 1-104)
T1 construct: Erh1 (Enhancer of rudimentary homolog 1), S. pombe, residues 1-104; Cloned into p28a, a modified pET28a without a thrombin cleavage site; Homodimer by SEC and in the crystal; also called Enhancer of rudimentary homolog 1; source: E. coli BL21 (Gold), purified (Ni-chelating resin, SEC)
T1 sequence (looked up): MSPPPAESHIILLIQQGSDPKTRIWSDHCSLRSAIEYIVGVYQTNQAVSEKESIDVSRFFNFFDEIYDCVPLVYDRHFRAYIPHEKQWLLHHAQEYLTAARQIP
Assay: ITC; MicroCal iTC200, 293 K, 20 mM Tris-HCl pH 7.5, 150 mM NaCl; SUMO-tagged Mmi1 peptides titrated into Erh1 in the cell; single-site binding model
Conditions: both partners purified
outcome measure: pKd
Answers are plain numbers, as −log10 of the molar value.

Tell me its pKd given GKYDFSRHCTDYGHSYEWPYFRSLRRES (domain or fragment, S. pombe, UniProt O74958 95-122, looked up, SUMO protein fused at the N-terminus following the His6 tag (modified pET28a); source: E. coli BL21 (Gold), purified (Ni-chelating resin, SEC); not shown: SUMO, N-terminal, kept) [SUMO tagged Mmi1^95-122] as the entry.
6.08
